- experiment: H69AR cell proliferation blockers – human, duplicate replicates, primary screen (AID 580);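 further: 100% = mean luminescence of untreated wells and 0% = no signal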
- measurement.setup: H69AR lung tumor cells viability, ATP luminescence, 72 h; at 10 µM; hits give low values
observation.type: viability (%)
One number for each entry, in %.

Kindly give each listed record's viability.
1. O=C(/C=C/N1CCOCC1)c1ccc(-c2ccccc2)cc1
2. CCOC(=O)c1cc(NC(=O)SCC(=O)O)c(C)nc1C
3. O=C(NCCN1C(=O)C2C3C=CC(C3)C2C1=O)Nc1ccccn1 (stereo not drawn)
4. CCN1CCN(C(=O)C2CC(c3ccc(F)cc3)=NO2)CC1 (stereo not drawn)
5. CCOc1ccc(N(C(C)C(=O)NC2CCCCCC2)S(C)(=O)=O)cc1 (stereo not drawn)
6. O=C(NCc1cccs1)C(Cc1ccccc1)NS(=O)(=O)c1cccs1 (stereo not drawn)
7. COc1ccc(C(=O)Oc2c(CN3CCOCC3)cc(Cl)c3cccnc23)cc1OC

Outgoing:
89.5
88.1
95.8
99.1
94.1
91.7
1.58
